Taken from paper PMC10392749.

- target.of.assay: UniProt Q8TBX8
- Sequence (Q8TBX8 2-421): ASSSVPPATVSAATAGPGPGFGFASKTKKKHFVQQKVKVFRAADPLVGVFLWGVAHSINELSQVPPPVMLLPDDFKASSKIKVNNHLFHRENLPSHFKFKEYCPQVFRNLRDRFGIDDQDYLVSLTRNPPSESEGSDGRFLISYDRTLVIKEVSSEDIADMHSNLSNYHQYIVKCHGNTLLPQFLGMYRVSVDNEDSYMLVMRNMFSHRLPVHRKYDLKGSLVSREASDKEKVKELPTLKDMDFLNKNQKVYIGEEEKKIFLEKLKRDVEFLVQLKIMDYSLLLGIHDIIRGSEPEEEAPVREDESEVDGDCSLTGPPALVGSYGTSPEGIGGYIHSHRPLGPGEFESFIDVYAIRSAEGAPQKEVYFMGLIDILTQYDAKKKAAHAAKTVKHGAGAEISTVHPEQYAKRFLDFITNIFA
- protocol.text: KiNativ ATP-probe chemoproteomics in A375 cells treated with WX8; in vitro kinase binding assay (Fig. 2F)
readout: IC50

compound | target.of.assay | recorded.measurement
C(=NNc1nc(Nc2ccccc2)nc(N2CCOCC2)n1)c1c[nH]c2ccccc12 [WX8] | UniProt Q8TBX8 | ~1000 nM
